STUDY TARGET: human recombinant 5-HT2A receptor (Homo sapiens)
Construct: host or cells: CHO-K1
Sequence (P28223 whole entry): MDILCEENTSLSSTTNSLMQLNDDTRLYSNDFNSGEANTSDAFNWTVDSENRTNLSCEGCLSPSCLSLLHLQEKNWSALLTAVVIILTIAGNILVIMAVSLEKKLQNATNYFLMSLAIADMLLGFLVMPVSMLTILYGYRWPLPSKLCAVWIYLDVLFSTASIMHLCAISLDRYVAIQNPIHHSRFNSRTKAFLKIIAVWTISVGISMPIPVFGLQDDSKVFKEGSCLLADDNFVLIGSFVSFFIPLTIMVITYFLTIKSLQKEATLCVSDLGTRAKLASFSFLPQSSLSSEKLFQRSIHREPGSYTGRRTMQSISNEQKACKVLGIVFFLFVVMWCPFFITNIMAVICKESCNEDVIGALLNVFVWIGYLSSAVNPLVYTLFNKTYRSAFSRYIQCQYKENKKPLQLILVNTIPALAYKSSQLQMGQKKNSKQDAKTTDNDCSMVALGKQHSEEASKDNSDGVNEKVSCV
EXPERIMENT: IPOne HTRF agonist assay, percent activity at 5-HT2A
Assay type: cell-based
COND: 30 uM (first value); relative to a-Me-5-HT; CHO-K1 cells
VALUE KIND: Percent (a-Me-5-HT) Activity at 5-HT2A (30 uM/0.3 μM)

{"columns": ["COMPOUND", "REPORTED VALUE"],
 "data": [
  ["C(/CN1CCC1)=C1/CCc2cccnc21", "5/5%"],
  ["C(/CN1CCC1)=C1/CCc2ccc3c(c21)CCO3", "38%"],
  ["COc1ccc2c(c1)/C(=C(\\F)CN(C)C)CC2", "1%"]
]}

For the 3 compounds below, give their Percent (a-Me-5-HT) Activity at 5-HT2A (30 uM/0.3 μM) values.
1. CN(C)C/C=C1\CCc2sccc21
2. CN(C)C/C=C1\CCc2ccc3c(c21)CCO3
3. FC(F)(F)Oc1ccc2c(c1)/C(=C/CN1CCC1)CC2

A:
1: 2%; 2: 33%; 3: 8%

For the 7 compounds below, give their Percent (a-Me-5-HT) Activity at 5-HT2A (30 uM/0.3 μM) values.
1. COC1C/C(=C\CN2CCC2)c2ccccc21 (stereo not shown)
2. OCc1ccc2c(c1)/C(=C/CN1CCC1)CC2
3. CN(C)C/C=C1\C=Cc2ccccc21
4. COC1C/C(=C\CN)c2ccccc21 (stereo not shown)
5. CCC(N)/C=C1\CCc2ccccc21 (stereo not shown)
6. COc1ccc2c(c1)/C(=C/CN(C)C)CC2
7. COc1ccc2c(c1)/C(=C/CN1CCC1)CC2

A:
24%
94%
49%
53%
20%
96%
47%
